Assayed system: human β3 adrenergic receptor (Homo sapiens, UniProt P13945)
Construct: expressed in transfected cells; host or cells: Chinese hamster ovary (CHO) cells, stably transfected
Sequence (P13945 whole entry): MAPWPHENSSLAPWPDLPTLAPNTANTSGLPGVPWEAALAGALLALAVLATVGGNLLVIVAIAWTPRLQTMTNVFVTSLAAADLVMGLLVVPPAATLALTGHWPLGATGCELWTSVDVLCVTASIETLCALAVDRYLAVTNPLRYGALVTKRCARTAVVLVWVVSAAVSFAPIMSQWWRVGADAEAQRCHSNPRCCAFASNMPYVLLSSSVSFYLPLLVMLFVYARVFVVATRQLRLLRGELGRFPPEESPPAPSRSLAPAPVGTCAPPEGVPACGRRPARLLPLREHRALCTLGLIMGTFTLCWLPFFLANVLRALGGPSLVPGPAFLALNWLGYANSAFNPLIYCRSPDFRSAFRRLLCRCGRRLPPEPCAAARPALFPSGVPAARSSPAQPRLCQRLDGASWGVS
Measurement description: Beta-3 agonist in vitro functional assay: cAMP production (LANCE TR-FRET) in CHO cells stably transfected with the cloned β3 receptor
Type: cell-based
Particulars: Table 8; Beta-3 agonist in vitro functional assay; read-out: Human β3 agonist functional activity
pEC50: −log10 of the molar value.
Entries annotated with measured pEC50

Worked cases, answers included:
O=C(c1ccc(C[C@@H]2CC[C@H]([C@H](O)c3cccnc3)N2)cc1)N1CCC2(CCOC2=O)CC1	7.00 to 8.00
O=C(c1ccc(C[C@@H]2CC[C@H]([C@H](O)c3ccccc3)N2)cc1)N1CCC2(C=Cc3ccccc3S2(=O)=O)CC1	8.00 to 9.00
O=C(c1ccc(C[C@@H]2CC[C@H]([C@H](O)c3ccccc3)N2)cc1)N1CCC(F)(S(=O)(=O)c2ccc(F)cc2)CC1	7.00 to 8.00
CON=C1CCCC12CCN(C(=O)c1ccc(CC3CCC(C(O)c4ccccc4)N3)cc1)CC2 (stereo not shown)	6.00 to 7.00
O=C1OC2(CCN(C(=O)c3ccc(C[C@@H]4CC[C@H]([C@H](O)c5ccccc5)N4)cc3)CC2)c2ncccc21	7.00 to 8.00
CC1(C)COC(=O)C12CCN(C(=O)c1ccc(C[C@@H]3CC[C@H]([C@H](O)c4ccccc4)N3)cc1)CC2	8.00 to 9.00

Recorded result, CN1CC(c2ccc(F)cc2)C2(CCN(C(=O)c3ccc(C[C@@H]4CC[C@H]([C@H](O)c5ccccc5)N4)cc3)CC2)C1=O (stereo partly shown) , pEC50: > 9.00
